These entries and their values trace back to PubChem BioAssay (NCI).

Tested on: KM12 colon
experimentDescription: NCI-60 one-dose screen, 48 h (100 = growth as untreated, 0 = no growth, -100 = all killed)
setupConditions: 10 µM unless noted
This is part of a sample that, as a whole, favours compounds with a hit. Of some 83,000 tested, about 20% had one in any assay.
As shown below, each of these compounds has a reported growth value.
Give your result in % as a bare value.

compound | targetEntity | growth, %
CC(=O)c1c[nH]c2ccc(-c3ccnc(Nc4ccc(NC(=O)C5CCCC5)c(CN5CCOCC5)c4)n3)cc12 | KM12 colon | -64.1
COc1ccc(C2=C(c3ccccc3)c3ccc(OC(C)=O)cc3OC2(C)C)cc1 | KM12 colon | 52.7
CCCc1cc2c(cc1Br)OCO2 | KM12 colon | 113

Per the records, this compound ( CC(O)/C=C/C=C/C(O)CC/C=C/C(=O)NCC(C)(C)O (stereo not given) ) has growth equal to 102

Per the records, this compound ( "Cc1[nH]n(-c2cccc(Cl)c2)c(=O)c1/C=C1\C=Nc2ccc(Br)cc21" ) has growth equal to 47.2

---

Tested on: NCI-H460 lung
experimentDescription: NCI-60 one-dose screen, 48 h
setupConditions: 10 µM unless noted
This is part of a sample that, as a whole, favours compounds with a hit. Of some 83,000 tested, about 20% had one in any assay. Active and inactive are the calls of the source. The calls were made as follows: active = growth percent below 10; inactive = the rest.
Write down one outcome, taken from YES for active, NO for inactive

Study these solved cases before continuing.
molecule | class
CCCCCCCCOC(=O)c1ccc(O)c(OC)c1 | NO
Nc1nnc(C(=O)c2cnc3n(c2=O)CCCCC3)s1 | NO

Shifting focus to the molecule that follows.
Hi, sorry to bother you, what did the test record for "COc1cc2nnn3c4ncccc4c(N=O)c3c2cc1OC" ?
NO

---

Test system: HS 578T breast
experimentDescription: NCI-60 one-dose screen, 48 h (100 = growth as untreated, 0 = no growth, -100 = all killed)
setupConditions: 10 µM unless noted
Compounds without any hit were thinned out: in the full panel of roughly 83,000, 20% have a hit.
endpointName: growth (%)
Give your result in % as a bare value.

For orientation, consider the following solved cases.
molecule | unitsText | growth
COc1ccc(/C=C/C(=O)c2ccc(Nc3ncnc4ccccc34)cc2)cc1OC | % | 110
Nc1nc(SN=Nc2ccc(S(N)(=O)=O)cc2)c2[nH]cnc2n1 | % | 36.5
O=c1[nH]c(=O)[nH]c(=S)[nH]1 | % | 99.3
COC(=O)Nc1ccc(NC(=O)OC)cc1 | % | 102

Per the records, this molecule ( "COc1ccc(Cl)cc1NC(=O)c1c(NC(=O)C(F)(F)C(F)(F)F)sc2c1CCCCC2" ) has growth equal to -3.45

Per the records, this molecule ( "COc1ccc(-c2nc(N=Nc3c(O)[nH]c4ccccc34)nc(N3CCOCC3)c2C#N)cc1" ) has growth equal to 47.5

Per the records, this molecule ( "CCOC(=O)Oc1c(OC)cc(C(=O)O[C@@H]2C[C@@H]3CN4CCc5c([nH]c6cc(OC)ccc56)[C@H]4C[C@@H]3[C@H](C(=O)OC)[C@H]2OC)cc1OC" ) has growth equal to 72.1

Per the records, this molecule ( "CN1CCN(c2ccc(NC3=C(Cl)C(=O)c4ncccc4C3=O)cc2C#N)CC1" ) has growth equal to 61.4

Per the records, this molecule ( "ClCC1(Cn2cnc3c(Cl)nc(Cl)nc32)COC1" ) has growth equal to 50.9

Per the records, this molecule ( CCn1cc(C2NC(=O)c3ccccc3N2)c2cccc(C)c21 (stereo unspecified) ) has growth equal to 7.22

Per the records, this molecule ( "Nc1cc(N)c2cccnc2c1O" ) has growth equal to 63.6

Per the records, this molecule ( "COc1ccc(-c2nc3sccn3c2/C=C/C(=O)c2cc(OC)c(OC)c(OC)c2)cc1" ) has growth equal to 71.1

Per the records, this molecule ( "CCOc1cc(CNc2ccc(N3CCOCC3)c(C(=O)O)c2)ccc1OC" ) has growth equal to 95.6

---

Test system: OVCAR-4 ovarian
experimentDescription: NCI-60 one-dose screen, 48 h (100 = growth as untreated, 0 = no growth, -100 = all killed)
setupConditions: 10 µM unless noted
Compounds without any hit were thinned out: in the full panel of roughly 83,000, 20% have a hit.
Note to self: class = bucket of growth, per group 1 = under 50%, group 2 = from 50% up to 90%, group 3 = 90% and over

Study these solved cases before continuing.
structureSmiles | class
CC(C)(C#N)N1CCN(c2ccccc2Cl)CC1 | group 3
O=C1c2cccnc2C(=O)c2nc3cc(N4CCN(C5CC5)CC4)ccc3nc21 | group 1
NC(=O)c1cccc(-n2ccc3cc(NC(=O)Nc4cc(C(F)(F)F)cc(C(F)(F)F)c4)ccc32)n1 | group 1
C=C1C(=O)O[C@H]2[C@H]1CC/C(COC(=O)NCCc1c[nH]c3ccc(Cl)cc13)=C\CC[C@@]1(C)O[C@@H]21 | group 1
O=c1nc2n(nc1/C=C/c1ccco1)CC(c1ccc(Cl)cc1)=NN2 | group 3
COc1cc(C(=O)/C=C/c2c(C)n([O-])c3ccc(Cl)cc3[n+]2=O)cc(OC)c1OC | group 2
Cc1nc2sc(C(=O)Nc3ccccc3)c(N)c2cc1C(=O)c1ccc(C(F)(F)F)cc1 | group 2

Class (by measured growth) for "CSc1nc(O)c(-c2ccccc2)c(=O)[nH]1"
group 3

---

Test system: U251 CNS
experimentDescription: NCI-60 one-dose screen, 48 h (100 = growth as untreated, 0 = no growth, -100 = all killed)
setupConditions: 10 µM unless noted
Compounds without any hit were thinned out: in the full panel of roughly 83,000, 20% have a hit.
Consider the cut-off 60%. If the recorded growth is strictly smaller, the label is y; if not, the label is n.

compound | class
CCc1nc(C)cn1C(=O)OCc1nc2nc(Cl)nc(N3CCOCC3)c2[nH]1 | y

Consider the compound "Nc1nnc(C(=O)c2cnc3n(c2=O)CCCCC3)s1" . Is its growth strictly less than 60%?
n

---

Tested on: SF-295 CNS
experimentDescription: NCI-60 one-dose screen, 48 h
setupConditions: 10 µM unless noted
The panel holds about 83,000 compounds, 20% with a hit somewhere; the sample as a whole holds those more often. Activity calls are given as the source filed them. How the source made its calls: active means growth percent below 10; inactive means the rest.
Write down one outcome, taken from active, inactive

Study these solved cases before continuing.
compound | class
Nc1cc(N)c2cccnc2c1O | inactive
Brc1ccc(C2CC(c3cccc(Nc4ccncc4)c3)=NN2c2ccccc2)cc1 (stereo unspecified) | inactive

Hi, sorry to bother you, what did the test record for "O=C(CN1CCOCC1)Nc1ccc2ncnc(Nc3ccc(Oc4cccc(C(F)(F)F)c4)c(Cl)c3)c2c1" ?
inactive

Hi, sorry to bother you, what did the test record for "COc1ccc(C(=O)c2cc3c(N)c(C(=O)Nc4cccc(Cl)c4C)sc3nc2C)cc1" ?
inactive

Hi, sorry to bother you, what did the test record for "CC(=O)c1c(C)[nH]c(-c2nc3ccc(N4CCN(C)CC4)cc3[nH]2)c1-c1ccccc1" ?
inactive

Hi, sorry to bother you, what did the test record for "CC(=O)c1cc2c(N)c(C(=O)Nc3cncc4ccccc34)sc2nc1C" ?
inactive

Hi, sorry to bother you, what did the test record for "BrC(Br)(Br)c1cnc2ccccc2n1" ?
inactive

Hi, sorry to bother you, what did the test record for CC(C)Cc1ccc(C(C)C(=O)NCc2c[nH]c3ccc(Cl)cc23)cc1 (stereo unspecified) ?
inactive

---

System: CAKI-1 renal
experimentDescription: NCI-60 one-dose screen, 48 h (100 = growth as untreated, 0 = no growth, -100 = all killed)
setupConditions: 10 µM unless noted
The panel holds about 83,000 compounds, 20% with a hit somewhere; the sample as a whole holds those more often.
Note to self: class = bucket of growth, per zone 1: < 40%; zone 2: ≥ 40% and < 80%; zone 3: ≥ 80%

Study these solved cases before continuing.
compound | class
O=C1Nc2c(ccc(Cl)c2Cl)/C1=C/c1ccccn1 | zone 1
CC1(C)CCCN1CCCN1c2ccccc2Sc2ccc(Cl)cc21 | zone 2
CCN(CC)CCCC(C)Nc1c2c(nc3ccc(OC)cc13)CCCC2 (stereo unspecified) | zone 3

Class (by measured growth) for "CC(C)(C)OC(=O)N1CCN(c2ccc(N)cc2)C(=O)C1"
zone 3

Class (by measured growth) for COc1ccc2c(c1)OC1=C(C(=O)OC1)C2c1cc(OC)c(OC)c(OC)c1 (stereo unspecified)
zone 2

Class (by measured growth) for "CC(C)(C)CC(C)(C)Nc1c(-c2ccc(C(F)(F)F)cc2)nc2cnccn12"
zone 2

Class (by measured growth) for "O=C(Nc1ccc(F)cc1)c1c(NC(=O)C(F)(F)F)sc2c1CCCCC2"
zone 1

---

Tested on: HCC-2998 colon
experimentDescription: NCI-60 one-dose screen, 48 h (100 = growth as untreated, 0 = no growth, -100 = all killed)
setupConditions: 10 µM unless noted
This is part of a sample that, as a whole, favours compounds with a hit. Of some 83,000 tested, about 20% had one in any assay.
endpointName: growth (%)
Give your result in % as a bare value.

For orientation, consider the following solved cases.
compound | targetEntity | unitsText | numericReadout
c1ccc(-c2nn(-c3ccccc3)[n+](-c3cccc4ccccc34)n2)cc1 | HCC-2998 colon | % | 20.8
CCOC(=O)c1cnc2c(cnn2CC)c1NN=C(C)C | HCC-2998 colon | % | 94.9
CCCN=C(N)c1ccc(NC(=O)c2ccc(C(=O)Nc3ccc(C(N)=NCCC)cc3)cc2)cc1 | HCC-2998 colon | % | 109
Cc1c(C(=O)NO)sc2ncnc(Nc3ccc(NC(=S)Nc4ccccc4)cc3)c12 | HCC-2998 colon | % | 99.9
COc1cccc2c1C(=O)c1c(O)c3c(c(O)c1C2=O)C[C@@](O)(C(=O)CO)C[C@@H]3O[C@H]1C[C@H](N)[C@@H](O)[C@H](C)O1 | HCC-2998 colon | % | -22.8

Item: "CS(=O)(=O)Nc1cc(-c2ccc3ncnc(Nc4ccc5[nH]ncc5c4)c3c2)cnc1Cl" | System: HCC-2998 colon | growth: 92

Item: "CCCCCCOc1ccc(C(=N)N(CCCC)CCCC)c2ccccc12" | System: HCC-2998 colon | growth: -98

Item: "COc1ccccc1OCC(=O)N1CCCCCC1" | System: HCC-2998 colon | growth: 108

Item: "CCCCCCCCCCN=C(N)N=C(N)N" | System: HCC-2998 colon | growth: 49.5

Item: Fc1ccc(C2CC(c3cccc(Nc4ccncc4)c3)=NN2c2cc(Cl)cc(Cl)c2)cc1 (stereo unspecified) | System: HCC-2998 colon | growth: 19.1

Item: "CN(C)C(=O)c1cc2cnc(Nc3ccc(-c4csc5c(=O)cc(N6CCOCC6)oc45)cc3)nc2n1C1CCCC1" | System: HCC-2998 colon | growth: -44.6

Item: "COc1ccccc1/C=C1\Oc2cc(OCCCN3CCCC3)ccc2C1=O" | System: HCC-2998 colon | growth: 102

Item: CC(=O)N1N=C(c2cccc(Nc3ccncc3)c2)CC1c1ccccc1 (stereo unspecified) | System: HCC-2998 colon | growth: 103

Item: CC(C)NC(=O)N1C(=O)CCC1NNC(=O)c1ccc([N+](=O)[O-])cc1 (stereo unspecified) | System: HCC-2998 colon | growth: 98.6

Item: "CCC(=O)c1ccc(O)c(OC)c1" | System: HCC-2998 colon | growth: 101

Item: "COc1ccc(-c2nc(SCC(C)C)nc(N/N=C(/C)c3ccc(OC)c(OC)c3)c2C#N)cc1" | System: HCC-2998 colon | growth: 92.4

Item: "Cc1c(C2=CCCCC2)c2ccccn2c1C(=O)c1cccc(S(=O)(=O)N2CCOCC2)c1" | System: HCC-2998 colon | growth: 82.2

Item: CCn1cc(C2NC(=O)c3ccccc3N2)c2cccc(C)c21 (stereo unspecified) | System: HCC-2998 colon | growth: 9.07

Item: CC(=O)OC1CCC2(C)C(CCC3C4CC=C(C(C)=O)C4(C)OC(=O)CC32)C1 (stereo unspecified) | System: HCC-2998 colon | growth: 73.8

Item: "O=C(Nc1ccc2ncnc(Nc3ccc(Oc4cccc(F)c4)c(Cl)c3)c2c1)c1ccc(CN2CCOCC2)cc1" | System: HCC-2998 colon | growth: 69

Item: "Clc1nc(Nc2ccccc2)nc(Nc2ccccc2)n1" | System: HCC-2998 colon | growth: 93.3
